Assay: Plasma pharmacokinetics, non-compartmental analysis
Format: in vivo, human
Conditions: human, plasma, iv, 10 mg
measured-attribute: MRT (h)
// note: answer is a bare numeric in h

Exam item: Supply MRT value. Item: Cc1ccc(C(=O)N(CCCN)C(c2nc3snc(C)c3c(=O)n2Cc2ccccc2)C(C)C)cc1 (stereo not shown) [AZD4877]
Marked response: 34.2

###

Experiment: Plasma pharmacokinetics, non-compartmental analysis
Assay type: in vivo, human
Conditions: human, plasma, iv, 25 mg
measured-attribute: Cmax
Entry format: amount then unit.

Exam item: Supply Cmax value. Item: Cc1ccc(C(=O)N(CCCN)C(c2nc3snc(C)c3c(=O)n2Cc2ccccc2)C(C)C)cc1 (stereo not shown) [AZD4877]
Marked response: 224 ng/mL

###

Assay: Plasma pharmacokinetics, non-compartmental analysis
Format: in vivo, human
Details: human, plasma, iv, 20 mg
measured-attribute: MRT

Exam item: Supply MRT value. Item: Cc1ccc(C(=O)N(CCCN)C(c2nc3snc(C)c3c(=O)n2Cc2ccccc2)C(C)C)cc1 (stereo not shown)
Marked response: 22.4 h

###

Test: Plasma pharmacokinetics, non-compartmental analysis
Type: in vivo, human
Details: human, plasma, iv, 15 mg
measured-attribute: concentration at 24 h

Exam item: Supply concentration at 24 h value. Item: Cc1ccc(C(=O)N(CCCN)C(c2nc3snc(C)c3c(=O)n2Cc2ccccc2)C(C)C)cc1 (stereo not shown) [AZD4877]
Marked response: 7.8 ng/mL

###

Assay: Plasma pharmacokinetics, non-compartmental analysis
Assay type: in vivo, human
Conditions: human, plasma, iv, 15 mg
measured-attribute: half-life (h)
// note: answer is a bare numeric in h

Exam item: Supply half-life value. Item: Cc1ccc(C(=O)N(CCCN)C(c2nc3snc(C)c3c(=O)n2Cc2ccccc2)C(C)C)cc1 (stereo not shown)
Marked response: 20.3

###

Experiment: Plasma pharmacokinetics, non-compartmental analysis
Assay type: in vivo, human
Conditions: human, plasma, iv, 25 mg
measured-attribute: Vd

Exam item: Supply Vd value. Item: Cc1ccc(C(=O)N(CCCN)C(c2nc3snc(C)c3c(=O)n2Cc2ccccc2)C(C)C)cc1 (stereo not shown)
Marked response: 432 L

###

Test: Plasma pharmacokinetics, non-compartmental analysis
Format: in vivo, human
Details: human, plasma, iv, 15 mg
measured-attribute: clearance (mL/min)
// note: answer is a bare numeric in mL/min

Exam item: Supply clearance value. Item: Cc1ccc(C(=O)N(CCCN)C(c2nc3snc(C)c3c(=O)n2Cc2ccccc2)C(C)C)cc1 (stereo not shown)
Marked response: 372

###

Assay: Plasma pharmacokinetics, non-compartmental analysis
Assay type: in vivo, human
Settings: human, plasma, iv, 10 mg
measured-attribute: Cmax (ng/mL)
// note: answer is a bare numeric in ng/mL

Exam item: Supply Cmax value. Item: Cc1ccc(C(=O)N(CCCN)C(c2nc3snc(C)c3c(=O)n2Cc2ccccc2)C(C)C)cc1 (stereo not shown) [AZD4877]
Marked response: 63.4

###

Experiment: Plasma pharmacokinetics, non-compartmental analysis
Format: in vivo, human
Conditions: human, plasma, iv, 10 mg
measured-attribute: AUC(0-t) (ng·h/mL)
// note: answer is a bare numeric in ng·h/mL

Exam item: Supply AUC(0-t) value. Item: Cc1ccc(C(=O)N(CCCN)C(c2nc3snc(C)c3c(=O)n2Cc2ccccc2)C(C)C)cc1 (stereo not shown)
Marked response: 234
